Kindly supply the reported TGI values for the records listed here.
# System: SW-620 colon
# PROCEDURE TEXT: NCI tumour cell line growth inhibition, 48 h

What value of TGI has been reported for the following compound? CCOC(=O)Cc1cc(OC)c(OC)cc1/C(Cl)=C(\CO)c1ccc(OC)c(OC)c1
> 100 µM

What value of TGI has been reported for the following compound? C=C1C(=O)O[C@H]2[C@H]1CC/C(COC(=O)c1cc(OC)c(OC)c(OC)c1)=C\CC[C@@]1(C)O[C@@H]21
1.57 µM

What value of TGI has been reported for the following compound? CCOC(=O)c1c(-c2ccccc2)[n+](=O)c2cc(Cl)c(Cl)cc2n1[O-]
37.1 µM

What value of TGI has been reported for the following compound? CC(=O)CCCCn1c(=O)c2c(nc(Br)n2C)n(C)c1=O
> 100 µM

What value of TGI has been reported for the following compound? CN=c1ss/c(=N\C(=S)N(C)C)n1C
> 100 µM

What value of TGI has been reported for the following compound? O=c1[nH]nc(Cc2ccccc2)n1/N=C/c1cccs1
> 100 µM

What value of TGI has been reported for the following compound? FC(F)(F)c1ccc(C2ON=C(c3ccccc3)N2C23CC4CC(CC(C4)C2)C3)cc1 (stereo not given)
> 10 µM

What value of TGI has been reported for the following compound? O=C1N/C(=N\N=C\c2ccccc2)C(c2ccccc2)O1 (stereo not given)
> 100 µM

What value of TGI has been reported for the following compound? CSc1ncnc2c1cnn2Cc1cn(COCCO)nn1
> 100 µM

What value of TGI has been reported for the following compound? COC(=O)C(=O)Cc1nc2ccccc2s1
> 100 µM
